meta.source: the supplement of paper PMC9170038

- Test system: K4 kissing-loop RNA reporter
- assayMethodText: apparent KD of K4 kissing-loop reporter; higher = weaker reporter binding
- conditionContext: Eterna round: R107; input ligand: none
resultType: apparent KD of K4 kissing-loop reporter (nM)
Answers are plain numbers, in nM.

Task: What value of apparent KD of K4 kissing-loop reporter has been recorded for this entry: UUAGCCUAGCCAUAGUGAUGUUGUGGAAUACGAGGACCGGUACGGCCGCCACUCGCUCGACGGUGAUGACAUCAACGACCUUUAU [theeternabot_sameState_KL_Trp_A_38]
Result: 311

Task: Then this sequence: CCGGGCGGCCGAAGGAGCGGGCGGACCCGAGUGAUGUUCGGGUGGCCCGUGAGGGCCGGUGCCCAGGUAGGUCGCGGAUCCGCCC [#2 Same State - Arginine B Attempt #3 (HarryS)]
Result: 140

Task: Cool, now UUAUUAUUCAGUGAUGUUGAAUUUAUUUCAGAGGAUAUGCAUAAAUGCAGAAGGCUGUAAUACUAUACUUUAAUAAAUUAAAUUU [JR_SSFMNA_Sub018]
Result: 248

Please state apparent KD of K4 kissing-loop reporter for every sequence in the list that follows.
1. GUAGAUAGGCUACAUCUCUAGUCUAUAGACUAGGAUAUCAGGAAACUGAGAAGGAGUCUCAUUGGAGUGAUGUUCCAAGAAUAAU [KL-SSFMN-A15]
2. UUUAUUAAGACGGCCGCCACUGAAUUAGAGUGAUGUUCUAUAAUUUCUAAAUUAAAUUUAUUCAACAGGACCGGGUCAAUUAUUA [JR_SSTryptoB_Sub011]
3. AUUAUAUAAUGGAGUGAUGUUCCAUCAGAUACCAGUGAAUUUGAACACCCUUGGCAGCUGUUGUUCAAAUAAUUUAAAUCCUUUA [JR_SSTheophyA_Sub019]

Result:
[114, 382, 132]

----------
- Test system: MS2 coat protein
- assayMethodText: apparent KD of MS2 coat protein; designed switch direction (-1 OFF switch, 1 ON switch): -1; higher = weaker reporter binding
- conditionContext: input ligand: none
Task for the reader: assign each of the following sequences its reported apparent KD of MS2 coat protein.
Numbers only, in nM.

These recorded examples may help you get a feel for the data.
Task: What does the record list as apparent KD of MS2 coat protein for UAUAUAUAGUAAGGAUAUGUAUUUAUCUUAUAAACAGAAGGUACUGACAUGAGGAUCACCCAUGUUUUAGUGUGGGCAUGUAGA [JMF's solution 17] (Eterna round: R96, puzzle: Exclusion NG 1) ?
Result: 41.8

Task: Continue with UGAUCUAGCGGAGGAUAUACAUGAGGAUCACCCAUGUAAAUCGCUUUACCGUAGUGAAGCAUCAUGUAGAAGGCCGCUAGAUCU [MOD3 ENG2 3.62 by JL] (Eterna round: R96, puzzle: Exclusion NG 2)
Result: 592

Task: Try the sequence CUUUUGUGAGGAUAUUAGUAGUUUAUAAUUAAAAUUAUUACUGAGAAGGCACAUGAGGAUCACCCAUGUACCAC [JR_Ex4_Sub030] (Eterna round: R97, puzzle: Exclusion 4)
Result: 21.8

Task: Please do the same for GGUCGGCGAGGAUAUACAUGAGGAUCACCCAUGUGAUAGAUUGCUUCGUGAGAAGUAUGUAGAAGGCGCUGACG [jl-ex3-4.04 jl mod] (Eterna round: R97, puzzle: Exclusion 3) as well.
Result: 38.7

Task: Cool, now AACAUGUGAGGAUAUUAUCACAAAGGCGUAGAAAUACGCGAUAAGAAGGCACAUGAGGAUCACCCAUGUUCCGA [EX4 A.24] (Eterna round: R97, puzzle: Exclusion 4)
Result: 17.5

Task: Also CUGUUUUCCGCAGGAUAUGCUCCUCCAUUAUUUGCAGAAGGGCGUUGAACAUGAGGAUCACCCAUGUAUGGAAAUGACUAUUGC [JR_ExcNG1_Sub069] (Eterna round: R96, puzzle: Exclusion NG 1) , if possible.
Result: 16.5

I have 4 sequences here; please give me apparent KD of MS2 coat protein for each one.
1. AAAGUGUAAGGAUAUCCGAAAAGCGAGCGAAAGCGAGCGAAGGAGAAGGUACAUGAGGAUCACCCAUGUAAGGG [AK-MS2ROC-r4-exclusion4-11.5] (Eterna round: R97, puzzle: Exclusion 4)
2. UCACCGCAAGGAUAUACUUGCGGUGAUGCUCGAAACUUUCUACUUGAGGAUCACCCAAGUAGAAGGUGCGGUGA [jl-ex2.4.68 ViennaUCT mod] (Eterna round: R97, puzzle: Exclusion 2)
3. GUCGUGCGGCAGUGCUGUACGAGUACAUGAGGAUCACCCAUGUAGGAUAUGGUUCGUUUUGCGUGCUAGAAGGGCGUGCGUUUA [Excl-NG3-LRO19] (Eterna round: R96, puzzle: Exclusion NG 3)
4. GUGCAGCUAGGAUAUACCGAAUGGGCCGAGCCGAAAAUAUUACAUGAGGAUCACCCAUGUAGAAGGAGCCAAUU [Eternabot (Original) Solution 22] (Eterna round: R97, puzzle: Exclusion 2)

Result:
961
13.1
21.2
34.7

----------
- Tested on: K4 kissing-loop RNA reporter;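 note: bound reporter read as fluorescence of individual clusters on recovered sequencing chips by microscopy, with normalized cluster intensities fitted with a binding model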
- assayMethodText: apparent KD of K4 kissing-loop reporter; higher = weaker reporter binding
- conditionContext: Eterna round: R107; input ligand: tryptophan 2.4 mM
Param threshold (100 nM) applies to apparent KD of K4 kissing-loop reporter; output Criterion met when value >= threshold, Criterion not met when value < threshold.

Task: Test whether the sequence GGGAGUAGUGCGGCCGCCACUGAGAAAGAAGAAGAAUAUAGUGAUGUUAUAUAGGAAAGGAAGAACAGGACCGGGCAUUAGAGGG [SSTRyptB.C] records apparent KD of K4 kissing-loop reporter of 100 nM or higher.
Result: Criterion met

Task: // same read-out, input: UCCUGCAAUCUGCCACGAAAGUGGAUUGAUACCAGAGUCGAAAGACUCCCUUGGCAGCGAGUGAUGUUCGUUGCAGGUAAAUAAA [MatMod 7 - Jieux - Exclusion - Theophylline A]
Result: Criterion met

Next:
Task: Textbook exercise: given the entry UGACAUUGCUCAGAUACCAGACCUGAGGAUCACCCUGGUGCCAAACGUACAAUAAUAAAUGUCCCUUGGCAGCUGAGCAAUGUCU [TheoBX 14] , state whether its apparent KD of K4 kissing-loop reporter is greater than or equal to 100 nM.
Result: Criterion not met

Task: Continue with GUGCGGCUAGUGAUGUUGGUUGCGUGGGAAGGAGCGCAGAAACAUGCAGGUAGGUCGCCCACACCUCUGAAAGAAGGUUAAUUCA [Biistian]
Result: Criterion met

Task: Again, but for UGUACCGAGUCAGGAUAUCAACGACUGACAAAGUCGGUCGAAUAUCCAGUGAUGUUGGAAAAUAAAUGAGAAGGGACUUGGUACU [FmnBS 12 #SwitchBubble #StaticStem]
Result: Criterion met

----------
- Tested on: MS2 coat protein
- assayMethodText: apparent KD of MS2 coat protein; designed switch direction (-1 OFF switch, 1 ON switch): 1; higher = weaker reporter binding
- conditionContext: input ligand: microRNA oligo, concentration not stated
resultType: apparent KD of MS2 coat protein (nM)
Numbers only, in nM.

Some entries whose results are on file:
Task: Quick one: apparent KD of MS2 coat protein for UAGUGCGUUAGAGGAUAUUCUAAAAUAAAAUAAAAGACAUGAGGAUCACCCAUGUAUGUACAUGGGAAGAAGGCUGAUGUGCUA [Omei SS(NG)2 Bv1] (Eterna round: R96, puzzle: Same State NG 2) ?
Result: 296

Task: Next: GAGCCAGUCCGAGGAUAUUCGUAGUAACACAUGAGGAUCACCCAUGUGGGCUCAGAAGAGCCCUUGGAGAAGGCGGGCUGGCUC [SS-NG2-LRO19] (Eterna round: R96, puzzle: Same State NG 2)
Result: 9.15

// next item, apparent KD of MS2 coat protein requested
Task: Give the measured apparent KD of MS2 coat protein of CCAAUGUACAAUUUAGAUCUACAUGAGGAUCACCCAUGUACAGAGGAUAUCAGCUCGUGUAGAGCUGAGAAGGCUGAAUUAAUU [SSNG3/3-A4] (Eterna round: R96, puzzle: Same State NG 3) .
Result: 117

----------
- Tested on: MS2 coat protein
- assayMethodText: apparent KD of MS2 coat protein; designed switch direction (-1 OFF switch, 1 ON switch): 1; higher = weaker reporter binding
- conditionContext: input ligand: microRNA oligo, concentration not stated
resultType: apparent KD of MS2 coat protein (nM)
Give bare numbers, in nM.

Examples from the recorded data:
Task: Quick check: apparent KD of MS2 coat protein of AUUAUUUCUGCAGGAUAUGAUUAACAUGAGGAUCACCCAUGUGGUGUUGUGAGUAAGGAGAGUGAUCAGAAGGGCAUUUUUUUU [JMF's solution 62] (Eterna round: R96, puzzle: Same State NG 2) ?
Result: 211

Task: What do you get for GUUACAUGAGGAUCACCCAUGUAAGUGUGGGAGAAAGUGACUUAGGAUAUCUAAUAUUUAAAUUAAGAGAAGGAAGAUUGUUGU [JMF's solution 4] (Eterna round: R96, puzzle: Same State NG 3) ?
Result: 64.3

Task: How about AGCCGAAGCGCAGGAUAUACAUGCACACAUGAGGAUCACCCAUGUGGCAACACGUGGUAGUGAUUGUAGAAGGGUGCUCGGCGC [Omei SS(NG)2 Cv16] (Eterna round: R96, puzzle: Same State NG 2) ?
Result: 34.4

Task: Same question for GAGAGAUGAUUAGGAUAUUCGGUGAUAAUGAUAGAAGAAGGAAUUGACAUGAGGAUCACCCAUGUGGGAAUAAUCCAGAGAGAG [Parity 21 - Jieux - Same State NG 1] (Eterna round: R96, puzzle: Same State NG 1) please.
Result: 77.5

Continuing:
Task: Entry GAGCCAGUCCGAGGAUAUUCAUUAAAUUAAAUACAUGAGGAUCACCCAUGUAGGCGAGAGCCUUGGGAGAAGGCGGACUGGCUC [Xeonanisa>>4] (Eterna round: R96, puzzle: Same State NG 2) : reported apparent KD of MS2 coat protein = ?
Result: 53.8
